Test system: Mycoplasma pneumoniae strain M129 (ATCC 29342)
Experiment: Time-kill curves
Format: cell-based
Design: unit not given here
Conditions: 64×MIC; time 12
readoutLabel: M. pneumoniae count in time-kill curve
Lab note: jot the number down without any unit.

[
  {
    "compound": "C=C[C@]1(C)C[C@@H](OC(=O)CSCCN(CC)CC)[C@]2(C)[C@H](C)CC[C@]3(CCC(=O)[C@H]32)[C@@H](C)[C@@H]1O [tiamulin, Tiamulin, reference compound]",
    "M. pneumoniae count in time-kill curve": 6.625
  },
  {
    "compound": "C=CC1(C)CC(OC(=O)CSc2ccc(NC(=O)Cc3ccc([N+](=O)[O-])cc3)cc2)C2(C)C(C)CCC3(CCC(=O)C32)C(C)C1O (centres unmarked) [compound 16C]",
    "M. pneumoniae count in time-kill curve": 5.938
  },
  {
    "compound": "O=C(O)c1cn(C2CC2)c2cc(N3CCNCC3)c(F)cc2c1=O [ciprofloxacin]",
    "M. pneumoniae count in time-kill curve": 5.252
  }
]

M. pneumoniae count in time-kill curve of CC[C@H]1OC(=O)[C@H](C)[C@@H](O[C@H]2C[C@@](C)(OC)[C@@H](O)[C@H](C)O2)[C@H](C)[C@@H](O[C@@H]2O[C@H](C)C[C@H](N(C)C)[C@H]2O)[C@](C)(O)C[C@@H](C)C(=O)[C@H](C)[C@@H](O)[C@]1(C)O [erythromycin] , assay on Mycoplasma pneumoniae strain M129 (ATCC 29342), is 6.741

# M. pneumoniae count in time-kill curve measured on Mycoplasma pneumoniae strain M129 (ATCC 29342) for item CN(C)[C@@H]1C(O)=C(C(N)=O)C(=O)[C@@]2(O)C(O)=C3C(=O)c4c(O)cccc4[C@@](C)(O)[C@H]3C[C@@H]12 [tetracycline] = 4.323

----------
System: Mycoplasma pneumoniae strain M129 (ATCC 29342)
Assay: Time-kill curves
Assay type: cell-based
Parameters: unit not given here
Conditions: 16×MIC; time 12
Procedure: […] The tubes were incubated at 37°C in 5% CO2 for 72 h, and 200 µL of the culture was removed every 12 h for 10-fold serial dilutions. The diluted cultures were plated on plates for further culture and counted after 7 d. […]
readoutLabel: M. pneumoniae count in time-kill curve
Give a plain numeric answer without units written out.

Solved cases (4 shown):
[
  {
    "molecule": "CN(C)[C@@H]1C(O)=C(C(N)=O)C(=O)[C@@]2(O)C(O)=C3C(=O)c4c(O)cccc4[C@@](C)(O)[C@H]3C[C@@H]12",
    "testedOn": "Mycoplasma pneumoniae strain M129 (ATCC 29342)",
    "M. pneumoniae count in time-kill curve": 5.216
  },
  {
    "molecule": "CC[C@H]1OC(=O)[C@H](C)[C@@H](O[C@H]2C[C@@](C)(OC)[C@@H](O)[C@H](C)O2)[C@H](C)[C@@H](O[C@@H]2O[C@H](C)C[C@H](N(C)C)[C@H]2O)[C@](C)(O)C[C@@H](C)C(=O)[C@H](C)[C@@H](O)[C@]1(C)O",
    "testedOn": "Mycoplasma pneumoniae strain M129 (ATCC 29342)",
    "M. pneumoniae count in time-kill curve": 6.732
  },
  {
    "molecule": "C=C[C@]1(C)C[C@@H](OC(=O)CSCCN(CC)CC)[C@]2(C)[C@H](C)CC[C@]3(CCC(=O)[C@H]32)[C@@H](C)[C@@H]1O [tiamulin, Tiamulin, reference compound]",
    "testedOn": "Mycoplasma pneumoniae strain M129 (ATCC 29342)",
    "M. pneumoniae count in time-kill curve": 6.238
  },
  {
    "molecule": "C=CC1(C)CC(OC(=O)CSc2ccc(NC(=O)Cc3ccc([N+](=O)[O-])cc3)cc2)C2(C)C(C)CCC3(CCC(=O)C32)C(C)C1O (centres unmarked) [compound 16C]",
    "testedOn": "Mycoplasma pneumoniae strain M129 (ATCC 29342)",
    "M. pneumoniae count in time-kill curve": 7.508
  }
]

Noted for O=C(O)c1cn(C2CC2)c2cc(N3CCNCC3)c(F)cc2c1=O : its M. pneumoniae count in time-kill curve reads 5.235
